These entries and their values trace back to PubChem BioAssay AID800.

molecular target: Coagulation factor XII (Homo sapiens); assay: coagulation factor XIIa activity inhibition – biochemical, 1536-well, primary screen (AID 800); conditions: purified FXIIa, Boc-QGR-AMC fluorogenic substrate, 2 h; at 5 µM; stronger effect = higher value;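 also: 0% = enzyme with no compound and 100% = blank without enzyme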
Screen size: about 220,000 compounds; about 650 (0.3%) were called active. The full list was thinned out, with actives kept by preference.
readout label: inhibition (%)
Numbers only, in %.

compound: COc1ccc(CNC(=O)C2CC(c3ccc(C(F)(F)F)cc3)=NO2)cc1 (stereo not given)
target under test: Coagulation factor XII (Homo sapiens)
inhibition [%]: 7.68
//
compound: COc1ccc(CN(Cc2ccc(OC)cc2)C(=O)c2cccs2)cc1
target under test: Coagulation factor XII (Homo sapiens)
inhibition [%]: 45.5
//
compound: CCCC[C@@H]1CN=C(N)N1CCc1cc(C(F)(F)F)cc(C(F)(F)F)c1
target under test: Coagulation factor XII (Homo sapiens)
inhibition [%]: 2.17
//
compound: CCc1cccc(CC)c1NC(=S)Nc1ccc2cn[nH]c2c1
target under test: Coagulation factor XII (Homo sapiens)
inhibition [%]: 10
//
compound: O=C(CSC(=S)N1CCCCC1)c1c(F)cccc1F
target under test: Coagulation factor XII (Homo sapiens)
inhibition [%]: 6.72

Please give inhibition, item by item, for the list that follows.
1. C=CCn1c(=S)sc2c(=O)[nH]c(C)nc21
2. Cc1ccc(S(=O)(=O)NC(=O)N2CCCN(Cc3ccc(F)cc3)CC2)cc1
3. c1ccc(-c2cc(N3CCCCC3)c3ccccc3n2)cc1

Response:
1. 1.68
2. 3.56
3. 16

Please give inhibition, item by item, for the list that follows.
1. O=C(NNC(=S)NC1CC2CCC1C2)c1ccc(Cl)cc1 (stereo not given)
2. COc1ccc(C(CC(=O)N2CCN(c3ccccc3)CC2)c2c(O)cc(OC)cc2OC)cc1 (stereo not given)

Response:
1. 7.4
2. 1.72
